meta.source: ChEMBL document CHEMBL1148594

- system-name: Cannabinoid receptor 1 (Homo sapiens)
- Sequence (P21554 whole entry): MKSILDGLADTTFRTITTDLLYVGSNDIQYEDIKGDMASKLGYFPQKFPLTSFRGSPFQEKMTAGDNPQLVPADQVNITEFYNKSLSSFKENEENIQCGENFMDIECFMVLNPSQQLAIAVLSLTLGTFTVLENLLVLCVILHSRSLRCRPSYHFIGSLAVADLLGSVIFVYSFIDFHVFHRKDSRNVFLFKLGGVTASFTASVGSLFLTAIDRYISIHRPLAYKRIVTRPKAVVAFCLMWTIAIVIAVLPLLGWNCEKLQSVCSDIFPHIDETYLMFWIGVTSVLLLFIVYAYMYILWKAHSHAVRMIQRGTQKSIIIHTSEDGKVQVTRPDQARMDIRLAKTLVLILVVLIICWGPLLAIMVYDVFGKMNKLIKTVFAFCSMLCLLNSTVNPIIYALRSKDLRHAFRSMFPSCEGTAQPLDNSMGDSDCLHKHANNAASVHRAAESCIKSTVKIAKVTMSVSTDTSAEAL
- assay-explanation: Displacement of [3H]SR-141716A from human CB1 receptor at 10 uM
quantity-measured: Activity (%)

{"columns": ["compound", "system-name", "unit-name", "comparative-sign", "reported-measurement"],
 "data": [
  ["CCCCCCn1cc(C(=O)Nc2cccc3ccccc23)c(=O)c2ccccc21", "Cannabinoid receptor 1 (Homo sapiens)", "%", "=", 53.3],
  ["CCCCCn1cc(C(=O)O)c(=O)c2ccccc21", "Cannabinoid receptor 1 (Homo sapiens)", "%", "<", 20],
  ["CCCCn1cc(C(=O)Nc2ccc(OC)cc2)c(=O)c2ccccc21", "Cannabinoid receptor 1 (Homo sapiens)", "%", "<", 20],
  ["CCCCCCn1cc(C(=O)NCc2ccccc2)c(=O)c2ccccc21", "Cannabinoid receptor 1 (Homo sapiens)", "%", "=", 37.4],
  ["CCCCCn1cc(C(=O)Nc2ccc(Cl)c(Cl)c2)c(=O)c2ccccc21", "Cannabinoid receptor 1 (Homo sapiens)", "%", "<", 10],
  ["CCCCCn1cc(C(=O)Nc2cccc3ccccc23)c(=O)c2ccccc21", "Cannabinoid receptor 1 (Homo sapiens)", "%", "=", 65.9],
  ["CCCCCn1cc(C(=O)NC2CCCc3ccccc32)c(=O)c2ccccc21 (racemic)", "Cannabinoid receptor 1 (Homo sapiens)", "%", "=", 79.7],
  ["CCCCCn1cc(C(=O)Nc2ccc(-c3ccccc3)cc2)c(=O)c2ccccc21", "Cannabinoid receptor 1 (Homo sapiens)", "%", "<", 20],
  ["CCCCCn1cc(C(=O)NC23CC4CC(CC(C4)C2)C3)c(=O)c2ccccc21", "Cannabinoid receptor 1 (Homo sapiens)", "%", "=", 59],
  ["CCCCCn1cc(C(=O)Nc2ccc3ccccc3c2)c(=O)c2ccccc21", "Cannabinoid receptor 1 (Homo sapiens)", "%", "<", 10]
]}

---

- system-name: Cannabinoid receptor 2 (Homo sapiens, UniProt P34972)
- Sequence (P34972 whole entry): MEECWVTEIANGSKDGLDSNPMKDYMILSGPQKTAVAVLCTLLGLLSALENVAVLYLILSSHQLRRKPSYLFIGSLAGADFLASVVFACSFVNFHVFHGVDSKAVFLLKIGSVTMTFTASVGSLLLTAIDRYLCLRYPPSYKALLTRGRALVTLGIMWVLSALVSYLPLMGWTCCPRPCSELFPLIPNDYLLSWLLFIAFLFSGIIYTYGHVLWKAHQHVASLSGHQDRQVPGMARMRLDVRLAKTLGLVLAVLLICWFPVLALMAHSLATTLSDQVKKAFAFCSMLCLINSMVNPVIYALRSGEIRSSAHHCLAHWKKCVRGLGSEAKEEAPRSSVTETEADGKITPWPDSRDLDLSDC
- assay-explanation: Effect on human CB2 receptor stimulation by [35S]GTP-gamma-S binding at 10 uM (basal value set at 100%)
- Type: functional
# Activity annotations

{"columns": ["molecule", "Activity [%]"],
 "data": [
  ["CCCCCn1cc(C(=O)NC2CCCc3ccccc32)c(=O)c2ccccc21 (racemic)", 123],
  ["CCCCCn1cc(C(=O)NC(C)c2ccc3ccccc3c2)c(=O)c2ccccc21 (racemic)", 122],
  ["CC12CC3CC(C)(C1)CC(NC(=O)c1cn(Cc4ccccc4)c4ccccc4c1=O)(C3)C2", 121],
  ["CCCCCCn1cc(C(=O)Nc2cccc3ccccc23)c(=O)c2ccccc21", 124],
  ["CCCC(C)(C)c1ccc2c(c1)OC(C)(C)[C@@H]1CC=C(C)C[C@@H]21", 148],
  ["CCCCn1cc(C(=O)Nc2cccc3ccccc23)c(=O)c2ccccc21", 132],
  ["CCCCCCC(C)(C)c1ccc([C@@H]2C[C@H](O)CC[C@H]2CCCO)c(O)c1", 146],
  ["CCCCCn1cc(C(=O)NC23CC4CC(C)(CC(C)(C4)C2)C3)c(=O)c2ccccc21", 131],
  ["CCCCCn1cc(C(=O)Nc2ccc(Cl)c(Cl)c2)c(=O)c2ccccc21", 116],
  ["CCCCCn1cc(C(=O)N[C@H](C)c2cccc3ccccc23)c(=O)c2ccccc21", 119],
  ["CCCCCn1cc(C(=O)N[C@H](C)c2ccc3ccccc3c2)c(=O)c2ccccc21", 122],
  ["Cc1c(C(=O)c2cccc3ccccc23)c2cccc3c2n1[C@H](CN1CCOCC1)CO3", 128],
  ["CCCCCn1cc(C(=O)NC23CC4CC(CC(C4)C2)C3)c(=O)c2ccccc21", 126],
  ["CCCCCn1cc(C(=O)Nc2ccc(C#N)cc2)c(=O)c2ccccc21", 133],
  ["CCCCCn1cc(C(=O)NCCc2ccccc2)c(=O)c2ccccc21", 136],
  ["CCCCCn1cc(C(=O)NCCc2ccc3c(c2)OCO3)c(=O)c2ccccc21", 136],
  ["CCCCCn1cc(C(=O)NC(C)c2cccc3ccccc23)c(=O)c2ccccc21 (racemic)", 117],
  ["CCCCCn1cc(C(=O)NCc2ccccc2)c(=O)c2ccccc21", 129],
  ["CCCCCn1cc(C(=O)NCCCc2ccccc2)c(=O)c2ccccc21", 134],
  ["CCCCCn1cc(C(=O)NC(C)c2ccccc2)c(=O)c2ccccc21 (racemic)", 130],
  ["CCCCCn1cc(C(=O)N[C@H](C)c2ccccc2)c(=O)c2ccccc21", 124],
  ["CCCCCCC(C)(C)c1cc(O)c2c(c1)OC(C)(C)[C@@H]1CC=C(CO)C[C@@H]21", 135],
  ["CCCCCn1cc(C(=O)NC2C3CC4CC(C3)CC2C4)c(=O)c2ccccc21 (stereo not given)", 130],
  ["CCCCCn1cc(C(=O)Nc2cccc3ccccc23)c(=O)c2ccccc21", 124],
  ["Cc1ccc(Cn2nc(C(=O)NC3C4(C)CCC(C4)C3(C)C)cc2-c2ccc(Cl)c(C)c2)cc1 (stereo not given)", 21.6]
]}
